# measured.target: Telomerase reverse transcriptase (Homo sapiens) (UniProt O14746)
# Sequence (O14746 whole entry): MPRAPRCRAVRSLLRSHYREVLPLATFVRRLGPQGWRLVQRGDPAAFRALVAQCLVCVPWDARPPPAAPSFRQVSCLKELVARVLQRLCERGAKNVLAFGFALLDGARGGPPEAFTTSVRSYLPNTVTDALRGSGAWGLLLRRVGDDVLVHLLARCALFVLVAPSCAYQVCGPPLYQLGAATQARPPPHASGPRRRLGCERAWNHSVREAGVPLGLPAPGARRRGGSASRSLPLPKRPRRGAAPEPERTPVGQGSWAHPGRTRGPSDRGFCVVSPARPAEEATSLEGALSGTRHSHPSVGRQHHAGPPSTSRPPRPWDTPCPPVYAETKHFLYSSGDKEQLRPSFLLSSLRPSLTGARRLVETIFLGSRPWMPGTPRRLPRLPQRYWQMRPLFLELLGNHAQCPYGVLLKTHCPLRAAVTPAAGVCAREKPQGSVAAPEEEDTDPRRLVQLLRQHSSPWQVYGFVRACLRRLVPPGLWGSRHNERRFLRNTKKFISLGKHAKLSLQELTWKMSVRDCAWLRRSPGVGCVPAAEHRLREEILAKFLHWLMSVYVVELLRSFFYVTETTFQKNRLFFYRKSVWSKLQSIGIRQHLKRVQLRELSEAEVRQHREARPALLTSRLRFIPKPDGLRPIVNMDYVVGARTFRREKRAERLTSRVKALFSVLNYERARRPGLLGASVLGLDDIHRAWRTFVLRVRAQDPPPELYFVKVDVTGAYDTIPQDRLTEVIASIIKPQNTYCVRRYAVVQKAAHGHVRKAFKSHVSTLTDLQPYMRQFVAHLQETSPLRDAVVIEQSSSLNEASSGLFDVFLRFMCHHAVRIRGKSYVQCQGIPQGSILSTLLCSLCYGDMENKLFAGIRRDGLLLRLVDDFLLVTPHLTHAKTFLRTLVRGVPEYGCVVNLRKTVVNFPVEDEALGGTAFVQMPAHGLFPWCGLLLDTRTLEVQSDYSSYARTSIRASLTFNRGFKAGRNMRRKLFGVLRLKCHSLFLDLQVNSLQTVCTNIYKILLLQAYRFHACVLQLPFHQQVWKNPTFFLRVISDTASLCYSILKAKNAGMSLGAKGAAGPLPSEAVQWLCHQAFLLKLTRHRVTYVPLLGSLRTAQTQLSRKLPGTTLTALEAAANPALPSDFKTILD
# assay: Residual activity of human TERT in H1299 cells at 100 uM after 24 hrs by SEAP reporter gene assay
reported.metric: residual activity (%)
Answers are plain numbers, in %.

Can you look up residual activity on Telomerase reverse transcriptase (Homo sapiens) (UniProt O14746) for O=C(CCl)Nc1ccc2c(c1NC(=O)c1ccc(F)cc1)C(=O)c1ccccc1C2=O ?
0

What residual activity appears in the records for this compound with Telomerase reverse transcriptase (Homo sapiens) (UniProt O14746)? O=C(CCl)Nc1ccc2c(c1NC(=O)c1ccno1)C(=O)c1ccccc1C2=O
1

What measured residual activity is associated with O=C(CCl)Nc1ccc2c(c1NC(=O)c1ccccc1Cl)C(=O)c1ccccc1C2=O on Telomerase reverse transcriptase (Homo sapiens) (UniProt O14746)?
1

Lab note: need residual activity for O=C(CCl)Nc1ccc2c(c1NC(=O)c1cccc(Cl)c1)C(=O)c1ccccc1C2=O on Telomerase reverse transcriptase (Homo sapiens) (UniProt O14746), anyone have it?
3

Under Telomerase reverse transcriptase (Homo sapiens) (UniProt O14746): residual activity value of O=C(CCl)Nc1ccc2c(c1NC(=O)c1ccc(C(F)(F)F)cc1)C(=O)c1ccccc1C2=O ?
6

Param readout= residual activity; system= Telomerase reverse transcriptase (Homo sapiens) (UniProt O14746); entry= O=C(CCl)Nc1ccc2c(c1NC(=O)CCCl)C(=O)c1ccccc1C2=O ; returns value.
15

For each of the items listed, what is its residual activity?
1. O=C(CCl)Nc1ccc2c(c1NC(=O)c1cccc(C(F)(F)F)c1)C(=O)c1ccccc1C2=O
2. Cc1ccc(C(=O)Nc2c(NC(=O)CN3CCN(C)CC3)ccc3c2C(=O)c2ccccc2C3=O)cc1
3. O=C(CCl)Nc1ccc2c(c1NC(=O)c1ccco1)C(=O)c1ccccc1C2=O

1. 0
2. 8
3. 2

###

# Test system: SF-268
# assay: Cytotoxicity against human SF268 cells assessed as cellular growth at 10 uM
# Format: functional
reported.metric: Activity

Below: 4 compounds and their reported Activity.
Would you kindly share the measured Activity for Cc1ccc(C(=O)Nc2c(NC(=O)CCl)ccc3c2C(=O)c2ccccc2C3=O)cc1 ?
14.63%

Which Activity is reported for this compound? Cc1ccc(C(=O)Nc2ccc3c(c2NC(=O)c2ccc(C)cc2)C(=O)c2ccccc2C3=O)cc1
98.91%

# Activity lookup, item Cc1ccc(C(=O)Nc2c(NC(=O)CN3CCCC3)ccc3c2C(=O)c2ccccc2C3=O)cc1
86.17%

Given the entry O=C(CCl)Nc1ccc2c(c1NC(=O)Cc1ccccc1)C(=O)c1ccccc1C2=O , report its measured Activity.
80.14%

Continuing:
# query: Activity of entry Cc1ccc(C(=O)Nc2c(NC(=O)CN3CCN(C)CC3)ccc3c2C(=O)c2ccccc2C3=O)cc1
59.11%

###

# measured.target: Telomerase reverse transcriptase (Homo sapiens)
# assay: Inhibition of telomerase activity in human H1299 cell free extract at 10 uM by modified TRAP assay
Calls of active or inactive are those of the source. The calls are words filed in the database; no cut-off is given here.
reported.metric: inhibition

Request the reported inhibition associated with O=C(CCl)Nc1ccc2c(c1NC(=O)c1ccccc1F)C(=O)c1ccccc1C2=O
inactive

Return reported inhibition; argument: O=C(CCl)Nc1ccc2c(c1NC(=O)c1ccc(Cl)cc1)C(=O)c1ccccc1C2=O
inactive

Which value of inhibition has been reported for O=C(CCl)Nc1ccc2c(c1NC(=O)CCCl)C(=O)c1ccccc1C2=O in the records?
inactive

###

# Tested on: MCF7
# assay: Cytotoxicity against human MCF7 cells assessed as cellular growth at 10 uM
# Assay type: functional
reported.metric: Activity (%)
Numbers only, in %.

Look over these answered cases.
Fill blank: measured Activity of the compound Cc1ccc(C(=O)Nc2c(NC(=O)CN3CCCC3)ccc3c2C(=O)c2ccccc2C3=O)cc1 is ____.
70.79

Sample Cc1ccc(C(=O)Nc2c(NC(=O)CCl)ccc3c2C(=O)c2ccccc2C3=O)cc1 — what was its Activity?
-79.28

Data request, read-out Activity, for Cc1ccc(C(=O)Nc2ccc3c(c2NC(=O)c2ccc(C)cc2)C(=O)c2ccccc2C3=O)cc1
71.71

List reported Activity for each of these compounds:
1. Cc1ccc(C(=O)Nc2c(NC(=O)CN3CCN(C)CC3)ccc3c2C(=O)c2ccccc2C3=O)cc1
2. O=C(CCl)Nc1ccc2c(c1NC(=O)Cc1ccccc1)C(=O)c1ccccc1C2=O

[31.79, 51]

###

# measured.target: Telomerase reverse transcriptase (Homo sapiens)
# assay: Residual activity of human TERT in H1299 cells at 1 uM after 24 hrs by SEAP reporter gene assay
Task for the reader: assign each of the following compounds its reported residual activity.
Answers are plain numbers, in %.

Query residual activity on Telomerase reverse transcriptase (Homo sapiens) for O=C(CCl)Nc1ccc2c(c1NC(=O)c1ccccc1C(F)(F)F)C(=O)c1ccccc1C2=O
93

Identify the measured residual activity of Cc1ccc(C(=O)Nc2c(NC(=O)CN3CCN(c4ccccn4)CC3)ccc3c2C(=O)c2ccccc2C3=O)cc1 for Telomerase reverse transcriptase (Homo sapiens).
97

Field: residual activity (Telomerase reverse transcriptase (Homo sapiens)). Entry: O=C(CCl)Nc1ccc2c(c1NC(=O)CCCCl)C(=O)c1ccccc1C2=O
108

Report residual activity for O=C(CCl)Nc1ccc2c(c1NC(=O)c1cccc(F)c1)C(=O)c1ccccc1C2=O tested on Telomerase reverse transcriptase (Homo sapiens).
26

// next item, residual activity requested
Item: O=C(CCl)Nc1ccc2c(c1NC(=O)COc1ccccc1)C(=O)c1ccccc1C2=O Test system: Telomerase reverse transcriptase (Homo sapiens) Read-out: residual activity Value: ?
82

###

For each entry below, report its Activity value.
# Tested on: SK-MEL-2
# assay: Cytotoxicity against human SK-MEL-2 cells assessed as cellular growth at 10 uM
# Type: functional
One number for each entry, in %.

Recorded Activity for Cc1ccc(C(=O)Nc2ccc3c(c2NC(=O)c2ccc(C)cc2)C(=O)c2ccccc2C3=O)cc1 , please?
100.65

Sample Cc1ccc(C(=O)Nc2c(NC(=O)CN3CCCC3)ccc3c2C(=O)c2ccccc2C3=O)cc1 — what was its Activity?
102.17

Which measured Activity value corresponds to O=C(CCl)Nc1ccc2c(c1NC(=O)Cc1ccccc1)C(=O)c1ccccc1C2=O ?
-6.49

Any idea what Activity was measured for Cc1ccc(C(=O)Nc2c(NC(=O)CCl)ccc3c2C(=O)c2ccccc2C3=O)cc1 ?
52

Now for a further compound.
# get_value(readout='Activity', item= Cc1ccc(C(=O)Nc2c(NC(=O)CN3CCN(C)CC3)ccc3c2C(=O)c2ccccc2C3=O)cc1 )
123.64

###

# Test system: T47D
# assay: Cytotoxicity against human T47D cells assessed as cellular growth at 10 uM
# Format: functional
reported.metric: Activity (%)
One number for each entry, in %.

Sample answers from the record:
Quick check: Activity on T47D, item Cc1ccc(C(=O)Nc2c(NC(=O)CN3CCN(C)CC3)ccc3c2C(=O)c2ccccc2C3=O)cc1 ?
52.62

So what Activity did Cc1ccc(C(=O)Nc2c(NC(=O)CN3CCCC3)ccc3c2C(=O)c2ccccc2C3=O)cc1 get with T47D?
44.33

Form: Entry = Cc1ccc(C(=O)Nc2c(NC(=O)CCl)ccc3c2C(=O)c2ccccc2C3=O)cc1 | System = T47D | Activity = ____
-49.46

Consider now this further compound.
Any idea what Activity came out for Cc1ccc(C(=O)Nc2ccc3c(c2NC(=O)c2ccc(C)cc2)C(=O)c2ccccc2C3=O)cc1 on T47D?
100

###

# System: MDA-MB-468
# assay: Cytotoxicity against human MDA-MB-468 cells assessed as cellular growth at 10 uM
# Format: functional
For each record, write down the corresponding Activity.
Answers are plain numbers, in %.

Use these answered entries as a reference point.
Under MDA-MB-468: Activity value of Cc1ccc(C(=O)Nc2c(NC(=O)CN3CCN(C)CC3)ccc3c2C(=O)c2ccccc2C3=O)cc1 ?
7.43

GET /values?readout=Activity&system=MDA-MB-468&item= Cc1ccc(C(=O)Nc2ccc3c(c2NC(=O)c2ccc(C)cc2)C(=O)c2ccccc2C3=O)cc1
104.17

What reported Activity corresponds to O=C(CCl)Nc1ccc2c(c1NC(=O)Cc1ccccc1)C(=O)c1ccccc1C2=O on MDA-MB-468?
51.02

Please look at the items below and tell me Activity for each one, in order.
1. Cc1ccc(C(=O)Nc2c(NC(=O)CCl)ccc3c2C(=O)c2ccccc2C3=O)cc1
2. Cc1ccc(C(=O)Nc2c(NC(=O)CN3CCCC3)ccc3c2C(=O)c2ccccc2C3=O)cc1

-83.42
69.27

###

# Test system: SF-539
# assay: Cytotoxicity against human SF539 cells assessed as cellular growth at 10 uM
# Type: functional
Could you please report measured Activity for the items listed next?
One number for each entry, in %.

Each molecule below has a reported value. Please supply its Activity.
1. Cc1ccc(C(=O)Nc2c(NC(=O)CCl)ccc3c2C(=O)c2ccccc2C3=O)cc1
2. Cc1ccc(C(=O)Nc2ccc3c(c2NC(=O)c2ccc(C)cc2)C(=O)c2ccccc2C3=O)cc1
3. O=C(CCl)Nc1ccc2c(c1NC(=O)Cc1ccccc1)C(=O)c1ccccc1C2=O
4. Cc1ccc(C(=O)Nc2c(NC(=O)CN3CCCC3)ccc3c2C(=O)c2ccccc2C3=O)cc1
5. Cc1ccc(C(=O)Nc2c(NC(=O)CN3CCN(C)CC3)ccc3c2C(=O)c2ccccc2C3=O)cc1

[-31.42, 97.26, 107.09, 81.29, 62.68]
